Data provenance: patent US20190233498A1

Biological target: T1, human VIP (human)
T1 construct: also called Vasoactive Intestinal Peptide
T1 peptide: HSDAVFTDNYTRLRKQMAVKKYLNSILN
Experiment: SPR, Ab immobilised
Reported koff values are given for each entry in this list.
Supply the numeric figure in s⁻¹, leaving out any unit text.

Below, each entry is followed by its recorded koff result.
binder	koff, s⁻¹
anti-PACAP antibody Ab19 (antibody, human IgG1, kappa, N297A, V domains shown, full-length rabbit/human chimeric antibody) VH: QSVEASGGRLVTPGTPLTLTCTVSGFSLSSATMNWVRQAPGKGLEWIGLIGGNDERYYASWAKGRFTISKTSSTTVDLKMTSPTTEDTATYFCARGGGEFFIWGPGTLVTVSS VL: AQVLTQTPSSVSAAVGGTVTINCQSSESVYTNDRLSWYQQKPGQPPKLLIYEASKLASGVPPRFSGSGSGTQFTLTISDLECDDAATYYCAGAYSTSIHGFGGGTEVVVKR	0.28
anti-PACAP antibody Ab12 (antibody, human IgG1, kappa, N297A, V domains shown, full-length rabbit/human chimeric antibody) VH: QSVEESGGRLVTPGTPLTLTCTASGFSLSSYAMGWVRQAPGKGLEWIGDISTYGTTDYASWVYGRFTISRTSTTVTLKMTSLTTEDTATYFCARDYWLSLWGQGTLVTVSS VL: AAVLTQTPSPVSAAVGGTVTIKCQSSQSVYDNNALAWYQQKPGQPPKLLIYAASTLASGVPSRFSGSGSGTEFTLTISGVQCDDAATYYCLGGYYDPADNAFGGGTEVVVKR	0.0024

Continue with the binder presented below.
State its koff for this binder: anti-PACAP antibody Ab5.H (antibody, human IgG1, kappa, N297A, V domains shown, humanized form of Ab5, full length) VH: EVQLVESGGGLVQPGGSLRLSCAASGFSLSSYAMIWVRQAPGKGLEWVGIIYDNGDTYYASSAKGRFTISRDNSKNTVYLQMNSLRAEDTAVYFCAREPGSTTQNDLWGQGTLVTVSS VL: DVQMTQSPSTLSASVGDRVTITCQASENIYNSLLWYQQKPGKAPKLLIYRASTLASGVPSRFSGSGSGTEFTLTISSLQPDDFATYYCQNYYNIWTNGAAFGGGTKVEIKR
0.1
